Items are presented alongside their recorded CC50 at 72 h.
assay: Cytotoxicity MTT assay (HELAM); type: cell-based, Human; settings: human, HelaM cells, read-out: HELAM (222.125) CC50

{"Compound": "O=C1COc2cc(/C=C/C(=O)N3CC4C=C(c5ccccc5)CC4C3)cnc2N1 (stereo not shown) [compound 37]", "CC50 at 72 h": "> 9.73 µg/mL"}
{"Compound": "O=C1COCc2cc(/C=C/C(=O)N3CC4C=C(c5nccs5)CC4C3)cnc2N1 (stereo not shown) [compound 49]", "CC50 at 72 h": "> 10.3 µg/mL"}
{"Compound": "O=C(Nc1ccc(/C=C/C(=O)N2CC3C=C(c4ccccc4)CC3C2)cn1)c1ccoc1 (stereo not shown) [compound 2]", "CC50 at 72 h": "7.57 µg/mL"}
{"Compound": "O=C1COc2cc(/C=C/C(=O)N3CC4C=C(c5ccncc5)CC4C3)cnc2N1 (stereo not shown) [compound 36]", "CC50 at 72 h": "> 3.88 µg/mL"}
{"Compound": "O=C(Nc1ccc(/C=C/C(=O)N2CC3C=C(c4ccccc4)CC3C2)cn1)c1cccnc1 (stereo not shown) [Cpd. No. 3]", "CC50 at 72 h": "1.23 µg/mL"}
{"Compound": "CC(=O)N1CCN2Cc3cc(/C=C/C(=O)N4CC5C=C(c6ccncc6)CC5C4)cnc3NC(=O)C2C1 (stereo not shown) [compound 84]", "CC50 at 72 h": "> 12.5 µg/mL"}
{"Compound": "C=CCN1C[C@@H]2CN(C(=O)/C=C/c3cnc4c(c3)CN(C)CC(=O)N4)C[C@@H]2C1 [compound 61]", "CC50 at 72 h": "> 9.58 µg/mL"}
{"Compound": "O=C1Nc2ncc(/C=C/C(=O)N3CC4C=C(c5ccccc5)CC4C3)cc2CN2CCNCC12 (stereo not shown) [compound 79]", "CC50 at 72 h": "> 11.4 µg/mL"}
{"Compound": "COc1cncc(C(=O)Nc2ccc(/C=C/C(=O)N3CC4C=C(c5nccs5)CC4C3)cn2)c1 (stereo not shown) [compound 32]", "CC50 at 72 h": "> 11.9 µg/mL"}
{"Compound": "N#Cc1cc(N)ncc1/C=C/C(=O)N1CC2C=C(c3ccccc3)CC2C1 (stereo not shown) [compound 22]", "CC50 at 72 h": "> 8.95 µg/mL"}

Name the reported CC50 at 72 h value associated with the compound O=C1COCc2cc(/C=C/C(=O)N3C[C@H]4CC(c5ccccc5)=C[C@H]4C3)cnc2N1 (single isomer, unassigned) [compound 53] > 10.1 µg/mL

Name the reported CC50 at 72 h value associated with the compound Cn1nccc1C1=CC2CN(C(=O)/C=C/c3cnc4c(c3)CN3CCOCC3C(=O)N4)CC2C1 (stereo not shown) [compound 85] > 11.6 µg/mL

Name the reported CC50 at 72 h value associated with the compound O=C(Nc1ccc(/C=C/C(=O)N2CC3C=C(c4ccncc4)CC3C2)cn1)c1cccnc1 (stereo not shown) [compound 9] > 11 µg/mL

Name the reported CC50 at 72 h value associated with the compound Cc1cncc(C(=O)Nc2ccc(/C=C/C(=O)N3CC4C=C(c5ccncc5)CC4C3)cn2)c1 (stereo not shown) [compound 8] > 11.3 µg/mL

Name the reported CC50 at 72 h value associated with the compound O=C1Nc2ncc(/C=C/C(=O)N3CC4C=C(c5ccccc5)CC4C3)cc2CO1 (stereo not shown) [compound 51] > 9.73 µg/mL

Name the reported CC50 at 72 h value associated with the compound O=C1CNCc2cc(/C=C/C(=O)N3CC4C=C(c5nccs5)CC4C3)cnc2N1 (stereo not shown) [compound 48] > 10.2 µg/mL
